Sourced from ChEMBL document CHEMBL5614424

# test name: Cmax in male rat at 10 mg/kg, ip measured upto 24 hrs by LC/MS/MS analysis
# Assay type: ADME, organism-based
# condition info: in vivo
Each entry below carries its recorded Cmax.
assay metric: Cmax (ng/mL)

- sample smiles: "CC(C)C[C@@H](CO)N1CCc2c(oc3c2C(=O)C(=O)c2ccccc2-3)C1.Cl"
  assay metric: "Cmax"
  experimental result: 272
- sample smiles: "O=C1C(=O)c2c(oc3c2CCN(CCO)C3)-c2ccccc21"
  assay metric: "Cmax"
  experimental result: 107
- sample smiles: "CC(C)C[C@@H](CO)N1CCc2c(oc3c2C(=O)C(=O)c2ccccc2-3)C1"
  assay metric: "Cmax"
  experimental result: 232

* * *

# test name: Cmax in male rat at 10 mg/kg, po measured upto 24 hrs by LC/MS/MS analysis
# Format: ADME, organism-based
# condition info: in vivo
Cmax values by entry
assay metric: Cmax (ng/mL)

- sample smiles: "CC(C)C[C@@H](CO)N1CCc2c(oc3c2C(=O)C(=O)c2ccccc2-3)C1.Cl"
  assay metric: "Cmax"
  experimental result: 78.4
- sample smiles: "O=C1C(=O)c2c(oc3c2CCN(CCO)C3)-c2ccccc21"
  assay metric: "Cmax"
  experimental result: 34.4
- sample smiles: "CC(C)C[C@@H](CO)N1CCc2c(oc3c2C(=O)C(=O)c2ccccc2-3)C1"
  assay metric: "Cmax"
  experimental result: 67.8

* * *

# test name: Half life in male rat at 10 mg/kg, ip measured upto 24 hrs by LC/MS/MS analysis
# Assay type: ADME, organism-based
# condition info: in vivo

- sample smiles: "CC(C)C[C@@H](CO)N1CCc2c(oc3c2C(=O)C(=O)c2ccccc2-3)C1"
  half-life: "474 min"
- sample smiles: "O=C1C(=O)c2c(oc3c2CCN(CCO)C3)-c2ccccc21"
  half-life: "210 min"
- sample smiles: "CC(C)C[C@@H](CO)N1CCc2c(oc3c2C(=O)C(=O)c2ccccc2-3)C1.Cl"
  half-life: "1030 min"

* * *

# Test system: MDA-MB-231
# test name: Antiproliferative activity against human MDA-MB-231 cells assessed as cell viability incubated for 48 hrs measured after additional incubation with MTT
# Assay type: functional, cell-based
# condition info: MDA-MB-231, 48 h
assay metric: IC50 (µM)

- sample smiles: "COC(=O)CCCN1CCc2c(oc3c2C(=O)C(=O)c2ccccc2-3)C1"
  assayed target: "MDA-MB-231"
  experimental result: 6.89
- sample smiles: "COC(=O)CC[C@@H](C(=O)OC)N1CCc2c(oc3c2C(=O)C(=O)c2ccccc2-3)C1"
  assayed target: "MDA-MB-231"
  experimental result: 12.7
- sample smiles: "COC(=O)[C@H](Cc1ccccc1)N1CCc2c(oc3c2C(=O)C(=O)c2ccccc2-3)C1"
  assayed target: "MDA-MB-231"
  experimental result: 8.26

* * *

# assayed target: Signal transducer and activator of transcription 3 (Homo sapiens)
# test name: Suppression of STAT3 activation in human MDA-MB-231 cell assessed as decrease in phosphorylated STAT3 (p-STAT3 Tyr705) level at 3 uM measured after 24 hrs by Western blot analysis
# Format: cell-based
Active and inactive are the calls of the source. The calls are words filed in the database; no cut-off is given here.
Labels: t = active, f = inactive

- sample smiles: "O=C1C(=O)c2c(oc3c2CCN(CCCO)C3)-c2ccccc21"
  assayed target: "Signal transducer and activator of transcription 3 (Homo sapiens)"
  category label: "t"
- sample smiles: "CN(C)C(=O)N1CCc2c(oc3c2C(=O)C(=O)c2ccccc2-3)C1"
  assayed target: "Signal transducer and activator of transcription 3 (Homo sapiens)"
  category label: "t"
- sample smiles: "O=C1C(=O)c2c(oc3c2CCN(CCO)C3)-c2ccccc21"
  assayed target: "Signal transducer and activator of transcription 3 (Homo sapiens)"
  category label: "t"
- sample smiles: "COC(=O)[C@H](C)N1CCc2c(oc3c2C(=O)C(=O)c2ccccc2-3)C1"
  assayed target: "Signal transducer and activator of transcription 3 (Homo sapiens)"
  category label: "f"
- sample smiles: "CNC(=O)[C@H](C)N1CCc2c(oc3c2C(=O)C(=O)c2ccccc2-3)C1"
  assayed target: "Signal transducer and activator of transcription 3 (Homo sapiens)"
  category label: "t"
- sample smiles: "C[C@@H](CO)N1CCc2c(oc3c2C(=O)C(=O)c2ccccc2-3)C1"
  assayed target: "Signal transducer and activator of transcription 3 (Homo sapiens)"
  category label: "t"
- sample smiles: "CC(=O)N1CCc2c(oc3c2C(=O)C(=O)c2ccccc2-3)C1"
  assayed target: "Signal transducer and activator of transcription 3 (Homo sapiens)"
  category label: "t"
- sample smiles: "CNC(=O)CCN1CCc2c(oc3c2C(=O)C(=O)c2ccccc2-3)C1"
  assayed target: "Signal transducer and activator of transcription 3 (Homo sapiens)"
  category label: "t"

* * *

# test name: AUC(0 to t) in male rat at 10 mg/kg, ip measured upto 24 hrs by LC/MS/MS analysis
# Type: ADME, organism-based
# condition info: in vivo
assay metric: AUC(0-t) at 24 h (ng·h/mL)

- sample smiles: "CC(C)C[C@@H](CO)N1CCc2c(oc3c2C(=O)C(=O)c2ccccc2-3)C1.Cl"
  uom: "ng·h/mL"
  experimental result: 571
- sample smiles: "CC(C)C[C@@H](CO)N1CCc2c(oc3c2C(=O)C(=O)c2ccccc2-3)C1"
  uom: "ng·h/mL"
  experimental result: 436
- sample smiles: "O=C1C(=O)c2c(oc3c2CCN(CCO)C3)-c2ccccc21"
  uom: "ng·h/mL"
  experimental result: 219

* * *

# test name: Antiproliferative activity against human MCF-10A cells assessed as cell viability incubated for 48 hrs measured after additional incubation with MTT
# Type: toxicity, cell-based
Documented IC50 at 48 h across a set of molecules

- sample smiles: "CC(C)C[C@@H](CO)N1CCc2c(oc3c2C(=O)C(=O)c2ccccc2-3)C1"
  uom: "µM"
  relation operator: ">"
  IC50 at 48 h: 20
- sample smiles: "C[C@H]1COC2=C1C(=O)C(=O)c1c2ccc2c1CCCC2(C)C"
  uom: "µM"
  relation operator: ">"
  IC50 at 48 h: 20
- sample smiles: "O=C1C(=O)c2c(oc3c2CCN(C(=O)c2cccnc2)C3)-c2ccccc21"
  uom: "µM"
  relation operator: "="
  IC50 at 48 h: 9.35
- sample smiles: "CNC(=O)[C@H](C)N1CCc2c(oc3c2C(=O)C(=O)c2ccccc2-3)C1"
  uom: "µM"
  relation operator: "="
  IC50 at 48 h: 17.6
- sample smiles: "CNC(=O)CCN1CCc2c(oc3c2C(=O)C(=O)c2ccccc2-3)C1"
  uom: "µM"
  relation operator: "="
  IC50 at 48 h: 11

* * *

# test name: Antiproliferative activity against human MCF-10A cells assessed as cell viability incubated for 48 hrs measured after additional incubation with MTT
# Type: toxicity, cell-based

- sample smiles: "C[C@@H](CO)N1CCc2c(oc3c2C(=O)C(=O)c2ccccc2-3)C1"
  IC50 at 48 h, µM: 7.98
- sample smiles: "CC(=O)c1cc2c(o1)C(=O)C(=O)c1ccccc1-2"
  IC50 at 48 h, µM: 6.23
- sample smiles: "COC(=O)[C@H](C)N1CCc2c(oc3c2C(=O)C(=O)c2ccccc2-3)C1"
  IC50 at 48 h, µM: 18.2
- sample smiles: "COc1ccc(C(=O)N2CCc3c(oc4c3C(=O)C(=O)c3ccccc3-4)C2)cc1OC"
  IC50 at 48 h, µM: 7.96
- sample smiles: "COC(=O)CCN1CCc2c(oc3c2C(=O)C(=O)c2ccccc2-3)C1"
  IC50 at 48 h, µM: 4.55

* * *

# Test system: MDA-MB-231
# test name: Antiproliferative activity against human MDA-MB-231 cells assessed as cell viability incubated for 48 hrs measured after additional incubation with MTT
# Format: functional, cell-based
# condition info: MDA-MB-231, 48 h
We label by threshold. Values of IC50 strictly beneath 6 µM are Criterion met. Values of 6 µM and up are Criterion not met.

- sample smiles: "CN(C)c1ccc(C(=O)N2CCc3c(oc4c3C(=O)C(=O)c3ccccc3-4)C2)cc1"
  assayed target: "MDA-MB-231"
  category label: "Criterion not met"
- sample smiles: "N#Cc1ccc(C(=O)N2CCc3c(oc4c3C(=O)C(=O)c3ccccc3-4)C2)cc1"
  assayed target: "MDA-MB-231"
  category label: "Criterion not met"
- sample smiles: "COc1ccc(C(=O)N2CCc3c(oc4c3C(=O)C(=O)c3ccccc3-4)C2)cc1OC"
  assayed target: "MDA-MB-231"
  category label: "Criterion met"
- sample smiles: "O=C1C(=O)c2c(oc3c2CCN(C(=O)c2cccs2)C3)-c2ccccc21"
  assayed target: "MDA-MB-231"
  category label: "Criterion not met"
- sample smiles: "O=C1C(=O)c2c(oc3c2CCN(C(=O)c2ccc(C(F)(F)F)cc2)C3)-c2ccccc21"
  assayed target: "MDA-MB-231"
  category label: "Criterion not met"
- sample smiles: "CC(=O)N1CCc2c(oc3c2C(=O)C(=O)c2ccccc2-3)C1"
  assayed target: "MDA-MB-231"
  category label: "Criterion met"
- sample smiles: "COC(=O)CN1CCc2c(oc3c2C(=O)C(=O)c2ccccc2-3)C1"
  assayed target: "MDA-MB-231"
  category label: "Criterion met"
- sample smiles: "CC(=O)c1cc2c(o1)C(=O)C(=O)c1ccccc1-2"
  assayed target: "MDA-MB-231"
  category label: "Criterion met"
- sample smiles: "COc1ccc(C(=O)N2CCc3c(oc4c3C(=O)C(=O)c3ccccc3-4)C2)cc1"
  assayed target: "MDA-MB-231"
  category label: "Criterion not met"
- sample smiles: "O=C1C(=O)c2c(oc3c2CCN(C(=O)N2CCOCC2)C3)-c2ccccc21"
  assayed target: "MDA-MB-231"
  category label: "Criterion not met"
- sample smiles: "CNC(=O)CN1CCc2c(oc3c2C(=O)C(=O)c2ccccc2-3)C1"
  assayed target: "MDA-MB-231"
  category label: "Criterion not met"
- sample smiles: "COC(=O)CCN1CCc2c(oc3c2C(=O)C(=O)c2ccccc2-3)C1"
  assayed target: "MDA-MB-231"
  category label: "Criterion met"
- sample smiles: "O=C1C(=O)c2c(oc3c2CCNC3)-c2ccccc21"
  assayed target: "MDA-MB-231"
  category label: "Criterion not met"
- sample smiles: "CN(C)C(=O)N1CCc2c(oc3c2C(=O)C(=O)c2ccccc2-3)C1"
  assayed target: "MDA-MB-231"
  category label: "Criterion met"
- sample smiles: "O=C1C(=O)c2c(oc3c2CCN(C(=O)c2cccc(C(F)(F)F)c2)C3)-c2ccccc21"
  assayed target: "MDA-MB-231"
  category label: "Criterion not met"
- sample smiles: "CNC(=O)[C@H](Cc1ccccc1)N1CCc2c(oc3c2C(=O)C(=O)c2ccccc2-3)C1"
  assayed target: "MDA-MB-231"
  category label: "Criterion not met"
- sample smiles: "COC(=O)[C@H](CC(C)C)N1CCc2c(oc3c2C(=O)C(=O)c2ccccc2-3)C1"
  assayed target: "MDA-MB-231"
  category label: "Criterion not met"
- sample smiles: "C[C@H]1COC2=C1C(=O)C(=O)c1c2ccc2c1CCCC2(C)C"
  assayed target: "MDA-MB-231"
  category label: "Criterion not met"
